Listed here are compounds together with their documented pEC50.
# test target: Glycogen synthase kinase-3 beta (Homo sapiens, UniProt P49841)
# Sequence (P49841 whole entry): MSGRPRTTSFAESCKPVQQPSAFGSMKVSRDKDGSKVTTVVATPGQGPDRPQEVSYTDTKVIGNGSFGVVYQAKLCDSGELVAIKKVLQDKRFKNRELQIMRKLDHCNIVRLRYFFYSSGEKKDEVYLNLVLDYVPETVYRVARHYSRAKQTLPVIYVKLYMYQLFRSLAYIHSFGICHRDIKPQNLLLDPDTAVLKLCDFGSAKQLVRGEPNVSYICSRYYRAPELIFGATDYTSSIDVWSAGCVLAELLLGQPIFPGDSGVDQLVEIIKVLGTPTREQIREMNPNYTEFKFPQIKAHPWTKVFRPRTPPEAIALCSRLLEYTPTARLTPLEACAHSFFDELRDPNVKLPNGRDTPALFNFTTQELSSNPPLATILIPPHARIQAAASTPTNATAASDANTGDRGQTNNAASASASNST
# assay protocol: concentration-response blocking of human GSK3B – biochemical, luminescence, cell-free homogeneous, retest, dose response (AID 434954)
pEC50: −log10 of the molar value.

compound | pEC50
COc1cccc(/C=C2/Sc3ccc(C(=O)NCCN4CCCC4)cc3NC2=O)c1 | 5.55
O=C(NN=Cc1cccnc1)c1cc(-c2ccccc2)nc2c(Cl)cccc12 | < 3.52
O=C(NCC(c1ccco1)N1CCN(c2ccc(F)cc2)CC1)c1cccs1 (stereo not drawn) | < 3.52
Cc1ccc(-n2c(C)c([N+](=O)[O-])c3ccc(O)cc32)cc1 | < 3.52
CNc1nc(N)c([N+](=O)[O-])c(NCC2CCCO2)n1 (stereo not drawn) | 4.30
Cc1nnc(SCC(=O)Nc2nccs2)n(N)c1=O | < 3.52
CCn1c(SCC(=O)Nc2ccc(Cl)cc2)nnc1C1CC1 | < 3.52
COc1cccc2cc(CC(=O)c3ccccc3)c(=O)oc12 | < 3.52
CC[n+]1c(/C=C/N(C)c2ccccc2)oc2ccc(F)cc21 | < 3.52
COc1ccc(-c2nn(CCC(=O)O)cc2C=NNC(N)=S)cc1 | < 3.52
Cc1cc(=O)[nH]c(N=NCc2ccc(-c3ccc([N+](=O)[O-])cc3)o2)n1 | < 3.52
Cc1ccc2nc3c(cc2c1)c(NC(=O)c1ccccn1)nn3CC(C)C | < 3.52
COC1=CC(=O)CC(C)C12Oc1cc(OC)cc(OC)c1C2=O (stereo not drawn) | < 3.52
Fc1ccccc1CSc1nnc(-c2ccccc2)o1 | < 3.52
CC1CCCCN1c1ncnc(N)c1[N+](=O)[O-] (stereo not drawn) | 5.09
COCCCNC(=O)c1cccn2c(=O)c3cc4ccccc4cc3nc12 | 6.28
CCC(C)Oc1cc(-c2ccnc(Nc3cccc(Cl)c3)n2)ccn1 (stereo not drawn) | 5.27
CC(c1ccccc1)n1c(CCCO)nc2ccccc21 (stereo not drawn) | < 3.52
CC(=O)Oc1cccc(N2C(=O)c3ccc(C(=O)Nc4cccnc4)cc3C2=O)c1 | < 3.52
c1ccc(CN=Nc2nccc(-c3cccnc3)n2)cc1 | 4.77
NC(=O)c1c(NC(=O)CN2C(=O)CCC2=O)sc2c1CCCCC2 | < 3.52
CCN(CC)S(=O)(=O)c1cccc(-n2cc(O)c(-c3ccccc3)c2N)c1 | < 3.52
O=C(CCc1ccccc1)Nc1cccc([N+](=O)[O-])c1 | < 3.52
CC(C)N1CC(C(=O)Nc2ccc(Br)c(Cl)c2)CC1=O (stereo not drawn) | < 3.52
CCCCCOc1ccc(C=NNC(=O)c2nnn(-c3nonc3N)c2CN2CCCCCC2)cc1 | 5.01
NC(=S)c1cn(C2OC(CO)C(O)C2O)c2ncnc(N)c12 (stereo not drawn) | 4.92
CCNc1nc(N)nc(-c2cc(Cl)ccc2OC)n1 | < 3.52
CCCCC(=O)Nc1ncc(Br)s1 | 5.38
